- TARGET_DESC: T1, angiopoietin-2 (Ang2) (human, UniProt O15123 68-496, limits assumed)
- T1 construct: Plain and biotinylated Ang2 are kept as one molecule; also called rhAng2; recombinant Ang2
- T1 sequence (looked up): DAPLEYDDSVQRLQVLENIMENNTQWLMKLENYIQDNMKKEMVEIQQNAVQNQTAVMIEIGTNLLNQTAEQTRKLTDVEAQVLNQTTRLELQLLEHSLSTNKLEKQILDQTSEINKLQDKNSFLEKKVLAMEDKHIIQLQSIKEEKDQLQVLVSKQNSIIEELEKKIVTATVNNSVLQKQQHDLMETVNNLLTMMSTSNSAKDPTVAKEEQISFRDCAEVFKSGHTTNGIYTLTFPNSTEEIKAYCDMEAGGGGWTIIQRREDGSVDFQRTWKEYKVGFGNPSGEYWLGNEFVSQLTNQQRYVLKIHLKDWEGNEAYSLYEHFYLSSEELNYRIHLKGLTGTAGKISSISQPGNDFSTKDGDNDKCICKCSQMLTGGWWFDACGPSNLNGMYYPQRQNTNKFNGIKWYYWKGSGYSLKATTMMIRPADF
- ASSAY_COMMENT: binding of MBP fusion to Ang2
pEC50: −log10 of the molar value. Where no end group is shown, it is not given here. MBP = maltose binding protein (MBP), fused to the peptide
QUANTITY_KIND: pEC50

Example entries and their recorded answers appear below.
{MBP}-KSLSLSPGSGGGSMGAQTNFMPMDNDELTLYEQFILQQGLE (other, not shown: large carriers, also: N-terminal MBP fusion, not in chain) [MBP fusion of LM32 variant SEQ ID NO:91]    8.85
{MBP}-KSLSLSPGSGGGSMGAQTNFMPMDNDEGLLYEEFILQQGLE (other, not shown: large carriers, also: N-terminal MBP fusion, not in chain) [MBP fusion of LM32 variant SEQ ID NO:96]    9.04

[P] {MBP}-KSLSLSPGSGGGSMGAQTNFMPMDNDEGLLYEQFIYQQGLE (other, not shown: large carriers, also: N-terminal MBP fusion, not in chain) [MBP fusion of LM32 variant SEQ ID NO:93]
[Q] {MBP}-KSLSLSPGSGGGSMGAQTNFMPMDNDEALLYEQFIYQQGLE (other, not shown: large carriers, also: N-terminal MBP fusion, not in chain) [MBP fusion of LM32 variant SEQ ID NO:94]
[R] {MBP}-KSLSLSPGSGGGSMGAQTNFMPMDNEELLLYEQFI (other, not shown: large carriers, also: N-terminal MBP fusion, not in chain) [MBP fusion of LM32 variant SEQ ID NO:33]
## Input Sort (3 binders) by pEC50: min first. Sort the labels as requested; that list is your answer.
## Output R, P, Q

From: patent US20170298106A1
